Biological target: 5HT3 receptor (Cavia porcellus)
Construct: Guinea pig ileum fragments; from tissue; host or cells: guinea pig ileum fragments
Sequence (O70212 20-490): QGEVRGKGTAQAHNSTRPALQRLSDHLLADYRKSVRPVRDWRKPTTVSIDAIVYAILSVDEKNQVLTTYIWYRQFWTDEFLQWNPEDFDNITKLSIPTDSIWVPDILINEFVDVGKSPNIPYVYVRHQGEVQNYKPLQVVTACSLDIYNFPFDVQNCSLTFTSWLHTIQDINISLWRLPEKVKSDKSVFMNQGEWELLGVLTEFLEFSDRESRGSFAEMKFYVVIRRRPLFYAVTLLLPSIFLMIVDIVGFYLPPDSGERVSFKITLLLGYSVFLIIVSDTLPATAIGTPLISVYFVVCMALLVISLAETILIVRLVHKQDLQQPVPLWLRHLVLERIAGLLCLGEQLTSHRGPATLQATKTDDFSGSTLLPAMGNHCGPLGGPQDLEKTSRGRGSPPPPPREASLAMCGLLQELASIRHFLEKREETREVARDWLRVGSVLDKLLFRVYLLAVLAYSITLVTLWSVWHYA
Assay: Inhibition of 2-methyl-serotonin induced contraction of guinea pig ileum
property-measured: pIC50
One number for each entry, as −log10 of the molar value.

Lookup result for Clc1ccc2c(c1)nc(N1CCNCC1)n2Cc1ccccc1 ; measured pIC50: 8.14
